Test system: co-culture of keratinocytes and melanocytes
Assay: Cytotoxicity by estimation of the incorporation of leucine
Type: cell-based
Parameter Measured: Cytotoxicity on co-culture

input: Check the records and state Cytotoxicity on co-culture for O=c1cc(CO)occ1O [Kojic acid, reference compound]
output: 100 µM

input: Check the records and state Cytotoxicity on co-culture for CCCCN1C(=O)CC(Cc2ccc(O)cc2O)C1=O (stereo not drawn) [drawing 126]
output: Non-cytotoxic

input: Check the records and state Cytotoxicity on co-culture for CCOC(=O)CN1C(=O)CC(Cc2ccc(O)cc2O)C1=O (stereo not drawn) [drawing 128]
output: Non-cytotoxic

input: Check the records and state Cytotoxicity on co-culture for O=C1CC(Cc2ccc(O)cc2O)C(=O)N1CCO (stereo not drawn) [drawing 129]
output: Non-cytotoxic

Further cases:
input: Check the records and state Cytotoxicity on co-culture for O=C1CC(=O)C(Cc2ccc(O)cc2O)C1 (stereo not drawn)
output: Non-cytotoxic

input: Check the records and state Cytotoxicity on co-culture for OC[C@H]1O[C@@H](Oc2ccc(O)cc2)[C@H](O)[C@@H](O)[C@@H]1O [Arbutin, reference compound]
output: Non-cytotoxic
